molecular target: complement C3b (UniProt P01024); experiment: ITC
test-readout: Kd (nM)

binder	unit-abbrev	experimental-result
staphylococcal complement inhibitor SCIN-A (natural protein) STSLPTSNEYQNEKLANELKSLLDELNVNELATGSLNTYYKRTIKISGQKAMYALKSKDFKKMSEAKYQLQKIYNEIDEALKSKY	nM	264
